# studySystem: Shiga toxin 2 (Escherichia coli O157:H7) (UniProt P09385+P09386)
# protocolDescription: E. coli 0.157:H7 Shiga Toxin SOP - stx2 screening assay
# Assay type: functional
# Set-up: scale not given: direction of the effect not stated beside the values
# studyConditions: 30 µM
experimentalReadout: Percent Effect (%)
The figure you give is taken to be in %; do not add the unit.

For this compound ( Cc1csc(N2CCN(C(=O)CCn3cncn3)CC2)n1 ), measured Percent Effect is -2.86

* * *

Here, each record is paired with measured Percent Effect data.
# studySystem: Shiga toxin 2 (Escherichia coli O157:H7) (UniProt P09385+P09386)
# protocolDescription: E. coli 0.157:H7 Shiga Toxin SOP - stx2 screening assay
# Assay type: functional
# Parameters: scale not given: direction of the effect not stated beside the values
# studyConditions: 30 µM
The reply should be a number in %, with the unit left off.

See these solved cases before continuing.
{"compound": "CC(=O)N1CCC2(CC1)CC(Oc1ccccc1)CO2 (stereo unspecified)", "observedMeasurement": -19.5}
{"compound": "CC(=O)NCC(=O)N1Cc2nccn2CC(Cn2cccn2)C1 (stereo unspecified)", "observedMeasurement": 0.581}
{"compound": "CCn1cc(CN(C)S(=O)(=O)c2ccc(Cl)cc2)cn1", "observedMeasurement": -34}
{"compound": "CCCN(C)C(=O)c1ccc2c(c1)[nH]c(=O)n2CCOCC", "observedMeasurement": -18.9}

Short answer on Shiga toxin 2 (Escherichia coli O157:H7) (UniProt P09385+P09386) for COc1ccc(C(=O)N2CCCC(CNS(C)(=O)=O)C2)cc1F (stereo unspecified) , Percent Effect: 22.9

Considering Cc1ccc(C)c(-c2csc(N)c2C#N)c1 , its Percent Effect with Shiga toxin 2 (Escherichia coli O157:H7) (UniProt P09385+P09386) was recorded as 4.18

Considering COC[C@@]12CC[C@@H](N3CCOCC3)C[C@H]1CCN(c1ncccn1)C2 , its Percent Effect with Shiga toxin 2 (Escherichia coli O157:H7) (UniProt P09385+P09386) was recorded as 17.6
